procedureSummary: Inhibition of WNV NS2B/NS3 protease using Bz-Nle-Lys-Arg-Arg-AMC as substrate by spectrofluorometric analysis relative to control
Set-up: species or system West Nile virus
reportedEndpoint: IC50 (µM)
Numbers only, in µM.

[in] Give the value of IC50 reported for the following: COc1ccc(-c2nnc(C(Cc3ccccc3)n3sc4ccccc4c3=O)o2)cc1 (stereo unspecified)
[out] 4.22

----------
System: dengue virus type 2
procedureSummary: Inhibition of DENV2 NS2B/NS3 protease expressed in Escherichia coli Top 10 F' using Bz-Nle-Lys-Arg-Arg-AMC as substrate at 10 uM by spectroflorometer analysis relative to control
Recorded inhibition determines the group label, using low-valued = under 20%, mid-valued = from 20% up to 40%, high-valued = 40% and over

[in] The entry to classify is `O=c1c2ccccc2sn1Cc1nnc(Cc2ccccc2)o1` ; which class holds it?
[out] low-valued

[in] The entry to classify is O=c1c2ccccc2sn1C(CCc1ccccc1)c1nnc(-c2cccc(Cl)c2)o1 (stereo unspecified) ; which class holds it?
[out] mid-valued

[in] The entry to classify is O=c1c2ccccc2sn1C(Cc1ccccc1)c1nnc(-c2ccccc2)o1 (stereo unspecified) ; which class holds it?
[out] high-valued

----------
Tested on: dengue virus type 2
procedureSummary: Inhibition of DENV2 NS2B/NS3 protease expressed in Escherichia coli Top 10 F' using Bz-Nle-Lys-Arg-Arg-AMC as substrate at 25 uM by spectroflorometer analysis relative to control
reportedEndpoint: inhibition

Worked examples, 8 molecules total:
molecule: CCCc1nnc(C(Cc2ccccc2)n2sc3ccccc3c2=O)o1 (stereo not given)
studySystem: dengue virus type 2
inhibition: 36.7%
--
molecule: O=c1c2ccccc2sn1C(CCc1ccccc1)c1nnc(-c2cccc(Cl)c2)o1 (stereo not given)
studySystem: dengue virus type 2
inhibition: 35%
--
molecule: N#Cc1ccc(-c2nnc(C(Cc3ccccc3)n3sc4ccccc4c3=O)o2)cc1 (stereo not given)
studySystem: dengue virus type 2
inhibition: 72.9%
--
molecule: O=c1c2ccccc2sn1C(Cc1ccccc1)c1nnc(-c2cccnc2)o1 (stereo not given)
studySystem: dengue virus type 2
inhibition: 70%
--
molecule: O=c1c2ccccc2sn1Cc1nnc(-c2cccc(Cl)c2)o1
studySystem: dengue virus type 2
inhibition: 16.7%
--
molecule: O=c1c2ccccc2sn1C(Cc1ccccc1)c1nnc(-c2cccc(F)c2)o1 (stereo not given)
studySystem: dengue virus type 2
inhibition: 50.9%
--
molecule: O=c1c2ccccc2sn1Cc1nnc(-c2cccc(F)c2)o1
studySystem: dengue virus type 2
inhibition: 9.11%
--
molecule: O=c1c2ccccc2sn1C(Cc1ccccc1)c1nnc(-c2ccc(Cl)cc2)o1 (stereo not given)
studySystem: dengue virus type 2
inhibition: 70.5%

Batch: inhibition for all items listed.
1. O=c1c2ccccc2sn1C(Cc1ccccc1)c1nnc(-c2ccc(F)cc2)o1 (stereo not given)
2. O=c1c2ccccc2sn1C(Cc1ccccc1)c1nnc(-c2cccc(Cl)c2)o1 (stereo not given)

[out]
1: 75.7%; 2: 42.1%

----------
Test system: dengue virus type 2
procedureSummary: Inhibition of DENV2 NS2B/NS3 protease expressed in Escherichia coli Top 10 F' using Bz-Nle-Lys-Arg-Arg-AMC as substrate at 10 uM by spectroflorometer analysis relative to control
reportedEndpoint: inhibition (%)
Answers are plain numbers, in %.

Worked examples, 5 compounds total:
compound: CCc1nnc(C(Cc2ccccc2)n2sc3ccccc3c2=O)o1 (stereo not drawn)
reportedEndpoint: inhibition
unitsText: %
reading: 22.5

compound: O=c1c2ccccc2sn1C(Cc1ccccc1)c1nnc(-c2ccc(Cl)cc2)o1 (stereo not drawn)
reportedEndpoint: inhibition
unitsText: %
reading: 53.2

compound: O=c1c2ccccc2sn1C(Cc1ccccc1)c1nnc(-c2ccc(F)cc2)o1 (stereo not drawn)
reportedEndpoint: inhibition
unitsText: %
reading: 60.3

compound: O=c1c2ccccc2sn1C(Cc1cccc(F)c1)c1nnc(-c2cccc(Cl)c2)o1 (stereo not drawn)
reportedEndpoint: inhibition
unitsText: %
reading: 16

compound: CCCc1nnc(C(Cc2ccccc2)n2sc3ccccc3c2=O)o1 (stereo not drawn)
reportedEndpoint: inhibition
unitsText: %
reading: 25.6

Batch: inhibition for all items listed.
1. COc1ccc(Cc2nnc(C(C)n3sc4ccccc4c3=O)o2)cc1 (stereo not drawn)
2. COc1ccc(-c2nnc(C(Cc3ccccc3)n3sc4ccccc4c3=O)o2)cc1 (stereo not drawn)
3. O=c1c2ccccc2sn1C(Cc1ccccc1)c1nnc(-c2cccc(Cl)c2)o1 (stereo not drawn)
4. O=c1c2ccccc2sn1C(Cc1ccccc1)c1nnc(-c2cccs2)o1 (stereo not drawn)
5. O=c1c2ccccc2sn1C(Cc1ccccc1)c1nnc(-c2cccc(F)c2)o1 (stereo not drawn)
6. O=c1c2ccccc2sn1Cc1nnc(-c2cccc(F)c2)o1
7. O=c1c2ccccc2sn1C(Cc1ccccc1)c1nnc(-c2cccnc2)o1 (stereo not drawn)

[out]
1. 8.08
2. 65.5
3. 34.3
4. 52.3
5. 39
6. 3.24
7. 58.1

[in] Give the value of inhibition reported for the following: O=c1c2ccccc2sn1C(Cc1ccccc1)c1nnc(-c2ccncc2)o1 (stereo not drawn)
[out] 62.4

----------
Tested on: West Nile virus
procedureSummary: Inhibition of WNV NS2B/NS3 protease using Bz-Nle-Lys-Arg-Arg-AMC as substrate at 10 uM by spectrofluorometric analysis relative to control
reportedEndpoint: inhibition (%)
Answers are plain numbers, in %.

Worked examples, 10 compounds total:
compound: Cc1nnc(C(Cc2ccccc2)n2sc3ccccc3c2=O)o1 (stereo not drawn)
unitsText: %
inhibition: 22.3

compound: O=c1c2ccccc2sn1C(Cc1ccccc1)c1nnc(-c2ccc(Cl)cc2)o1 (stereo not drawn)
unitsText: %
inhibition: 53.5

compound: O=c1c2ccccc2sn1Cc1nnc(-c2cccc(F)c2)o1
unitsText: %
inhibition: 7.68

compound: N#Cc1ccc(-c2nnc(C(Cc3ccccc3)n3sc4ccccc4c3=O)o2)cc1 (stereo not drawn)
unitsText: %
inhibition: 63.6

compound: O=c1c2ccccc2sn1C(Cc1ccccc1)c1nnc(-c2ccco2)o1 (stereo not drawn)
unitsText: %
inhibition: 44.3

compound: O=c1c2ccccc2sn1C(Cc1ccccc1)c1nnc(-c2cccc(Cl)c2)o1 (stereo not drawn)
unitsText: %
inhibition: 29

compound: O=c1c2ccccc2sn1C(Cc1ccccc1)c1nnc(-c2ccccc2)o1 (stereo not drawn)
unitsText: %
inhibition: 51.7

compound: CCc1nnc(C(Cc2ccccc2)n2sc3ccccc3c2=O)o1 (stereo not drawn)
unitsText: %
inhibition: 25.1

compound: O=c1c2ccccc2sn1C(Cc1cccc(F)c1)c1nnc(-c2cccc(Cl)c2)o1 (stereo not drawn)
unitsText: %
inhibition: 27.4

compound: COc1ccc(Cc2nnc(C(C)n3sc4ccccc4c3=O)o2)cc1 (stereo not drawn)
unitsText: %
inhibition: 4.17

Batch: inhibition for all items listed.
1. O=c1c2ccccc2sn1C(Cc1ccccc1)c1nnc(-c2ccc(F)cc2)o1 (stereo not drawn)
2. O=c1c2ccccc2sn1C(CCc1ccccc1)c1nnc(-c2cccc(Cl)c2)o1 (stereo not drawn)
3. O=c1c2ccccc2sn1C(Cc1ccccc1)c1nnc(-c2cccc(F)c2)o1 (stereo not drawn)

[out]
[51.1, 23.9, 30.4]

----------
I'd be grateful if you could share measured inhibition for these entries.
Test system: dengue virus type 2
procedureSummary: Inhibition of DENV2 NS2B/NS3 protease expressed in Escherichia coli Top 10 F' using Bz-Nle-Lys-Arg-Arg-AMC as substrate at 25 uM by spectroflorometer analysis relative to control
One number for each entry, in %.

Worked examples, 3 molecules total:
molecule: CCc1nnc(C(Cc2ccccc2)n2sc3ccccc3c2=O)o1 (stereo unspecified)
reportedEndpoint: inhibition
reading: 34.2
--
molecule: COc1ccc(Cc2nnc(Cn3sc4ccccc4c3=O)o2)cc1
reportedEndpoint: inhibition
reading: 7.9
--
molecule: O=c1c2ccccc2sn1C(Cc1ccccc1)c1nnc(-c2ccncc2)o1 (stereo unspecified)
reportedEndpoint: inhibition
reading: 70.9

Batch: inhibition for all items listed.
1. COc1ccc(-c2nnc(C(Cc3ccccc3)n3sc4ccccc4c3=O)o2)cc1 (stereo unspecified)
2. O=c1c2ccccc2sn1C(Cc1cccc(F)c1)c1nnc(-c2cccc(Cl)c2)o1 (stereo unspecified)

[out]
1: 80; 2: 31.6

Batch: inhibition for all items listed.
1. O=c1c2ccccc2sn1Cc1nnc(Cc2ccccc2)o1
2. O=c1c2ccccc2sn1C(Cc1ccccc1)c1nnc(-c2cccs2)o1 (stereo unspecified)
3. O=c1c2ccccc2sn1C(Cc1ccccc1)c1nnc(-c2ccccc2)o1 (stereo unspecified)
4. CCOc1ccc(-c2nnc(C(Cc3ccccc3)n3sc4ccccc4c3=O)o2)cc1 (stereo unspecified)

[out]
1: 16.4; 2: 69.8; 3: 69.2; 4: 61.3

Batch: inhibition for all items listed.
1. Cc1nnc(C(Cc2ccccc2)n2sc3ccccc3c2=O)o1 (stereo unspecified)
2. COc1ccc(Cc2nnc(C(Cc3ccccc3)n3sc4ccccc4c3=O)o2)cc1 (stereo unspecified)

[out]
1: 31.6; 2: 38.6

----------
Tested on: West Nile virus
procedureSummary: Inhibition of WNV NS2B/NS3 protease using Bz-Nle-Lys-Arg-Arg-AMC as substrate at 10 uM by spectrofluorometric analysis relative to control
reportedEndpoint: inhibition (%)
Answers are plain numbers, in %.

molecule: CCCc1nnc(C(Cc2ccccc2)n2sc3ccccc3c2=O)o1 (stereo unspecified)
reportedEndpoint: inhibition
unitsText: %
reading: 34.9
//
molecule: CCOc1ccc(-c2nnc(C(Cc3ccccc3)n3sc4ccccc4c3=O)o2)cc1 (stereo unspecified)
reportedEndpoint: inhibition
unitsText: %
reading: 56.1
//
molecule: O=c1c2ccccc2sn1C(Cc1ccccc1)c1nnc(-c2cccs2)o1 (stereo unspecified)
reportedEndpoint: inhibition
unitsText: %
reading: 43.7
//
molecule: COc1ccc(Cc2nnc(Cn3sc4ccccc4c3=O)o2)cc1
reportedEndpoint: inhibition
unitsText: %
reading: 5.96
//
molecule: O=c1c2ccccc2sn1Cc1nnc(Cc2ccccc2)o1
reportedEndpoint: inhibition
unitsText: %
reading: 8.27

Batch: inhibition for all items listed.
1. COc1ccc(-c2nnc(C(Cc3ccccc3)n3sc4ccccc4c3=O)o2)cc1 (stereo unspecified)
2. O=c1c2ccccc2sn1Cc1nnc(-c2cccc(Cl)c2)o1
3. O=c1c2ccccc2sn1C(Cc1ccccc1)c1nnc(-c2cccnc2)o1 (stereo unspecified)
4. COc1ccc(Cc2nnc(C(Cc3ccccc3)n3sc4ccccc4c3=O)o2)cc1 (stereo unspecified)
5. O=c1c2ccccc2sn1C(Cc1ccccc1)c1nnc(Cc2ccccc2)o1 (stereo unspecified)
6. O=c1c2ccccc2sn1C(Cc1ccccc1)c1nnc(-c2ccncc2)o1 (stereo unspecified)

[out]
1: 68.6; 2: 6.15; 3: 55.8; 4: 24.2; 5: 20.5; 6: 63.1
